Items are presented alongside their recorded IC50.
test system: human lung cancer strain NCI-H441; type: cell-based
Where a SMILES comes first, the peptide text is derived from it. Bridges are numbered along the chain shown (N, C = ends). [ ]: non-standard residue; d: D form. The star is where a group is joined. hPhe(3-Cl-4-CF3) = N[C@@H](CCc1ccc(C(F)(F)F)c(Cl)c1)C(=O)O; NPrPhe(4-CF3) = CCCN[C@@H](Cc1ccc(C(F)(F)F)cc1)C(=O)O; Morpholine(3S-CO) = O=C(O)[C@@H]1COCCN1; NMeGly(cPent) = CN[C@H](C(=O)O)C1CCCC1; NMeD = CN[C@@H](CC(=O)O)C(=O)O; NMeL = CN[C@@H](CC(C)C)C(=O)O; Morpholide = C1CN(*)CCO1; Ac5c = NC1(C(=O)O)CCCC1; Sar = CNCC(=O)O
// return numeric value only (unit: nM, not printed)

// below: answered molecules
>  <Molecule>
CCO[C@@H]1C[C@H]2C(=O)NC3(CCCC3)C(=O)N(C)[C@@H](C3CCCC3)C(=O)N(C)[C@H](C(=O)N(C)C)CC(=O)N(C)[C@@H](CC)C(=O)N[C@@H]([C@@H](C)CC)C(=O)N(C)CC(=O)N(C)[C@H]3CC(C)=C(C)CN(C3=O)[C@@H](Cc3ccc(C(F)(F)F)cc3)C(=O)N(C)CC(=O)N[C@@H](CCc3cc(F)c(C(F)(F)F)c(F)c3)C(=O)N2C1

>  <Target desc>
human lung cancer strain NCI-H441

>  <IC50 [nM]>
815

$$$$
>  <Molecule>
CCCOC[C@H]1C(=O)N[C@@H]([C@@H](C)CC)C(=O)N(C)CC(=O)N(C)[C@H]2C/C=C\CCN(C2=O)[C@@H](Cc2ccc(C)cc2)C(=O)N(C)CC(=O)N[C@@H](CCc2cc(F)c(C(F)(F)F)c(F)c2)C(=O)N2C[C@H](CC)C[C@H]2C(=O)NC2(CCCC2)C(=O)N(C)[C@@H](C2CCCC2)C(=O)N(C)[C@H](C(=O)N(C)C)CC(=O)N1C

>  <Target desc>
human lung cancer strain NCI-H441

>  <IC50 [nM]>
24

$$$$
>  <Molecule>
CCO[C@@H]1C[C@H]2C(=O)NC3(CCC3)C(=O)N(C)[C@@H](C3CCCC3)C(=O)N(C)[C@H](C(=O)N(C)C)CC(=O)N(CC)[C@@H](CC(C)C)C(=O)N[C@@H]([C@@H](C)CC)C(=O)N(C)CC(=O)N(C)[C@H]3C/C=C\CCN(C3=O)[C@@H](Cc3ccc(C(F)(F)F)cc3)C(=O)N(C)CC(=O)N[C@@H](CCc3cc(F)c(C(F)(F)F)c(F)c3)C(=O)N2C1

>  <Target desc>
human lung cancer strain NCI-H441

>  <IC50 [nM]>
16.8

$$$$

Look up IC50 for this molecule: CCO[C@@H]1C[C@H]2C(=O)NC3(CCC3)C(=O)N(C)[C@@H](C(CC)CC)C(=O)N(C)[C@H](CC)CC(=O)N(C)[C@@H](CC)C(=O)N[C@@H]([C@@H](C)CC)C(=O)N(C)CC(=O)N(C)[C@H]3C/C=C\CCN(C3=O)[C@@H](Cc3ccc(C(F)(F)F)cc3)C(=O)N(C)CC(=O)N[C@@H](CCc3cc(F)c(C(F)(F)F)c(F)c3)C(=O)N2C1
55.8

Look up IC50 for this molecule: CCCN1C(=O)CN(C)C(=O)CN(C)C(=O)[C@H]([C@@H](C)CC)NC(=O)[C@H](CC(C)C)N(C)C(=O)C[C@@H](C(=O)N2CCOCC2)N(C)C(=O)[C@H](C2CCCC2)N(C)C(=O)C2(CCCC2)NC(=O)[C@@H]2COCCN2C(=O)[C@H](CCc2ccc(C(F)(F)F)c(Cl)c2)NC(=O)CN(C)C(=O)[C@@H]1Cc1ccc(C(F)(F)F)cc1 [PP0265] ([NMeL]I[Sar][Sar][NPrPhe(4-CF3)][Sar][hPhe(3-Cl-4-CF3)][Morpholine(3S-CO)][Ac5c][NMeGly(cPent)][NMeD]-Morpholide; lactam N-11)
13.3

###

tested on: human lung cancer strain NCI-H441; type: cell-based
Where a SMILES comes first, the peptide text is derived from it. Bridges are numbered along the chain shown (N, C = ends). [ ]: non-standard residue; d: D form. The star is where a group is joined. hPhe(3-Cl-4-CF3) = N[C@@H](CCc1ccc(C(F)(F)F)c(Cl)c1)C(=O)O; NPrPhe(4-CF3) = CCCN[C@@H](Cc1ccc(C(F)(F)F)cc1)C(=O)O; NMeGly(cPent) = CN[C@H](C(=O)O)C1CCCC1; Pro(4,4-F2) = O=C(O)[C@@H]1CC(F)(F)CN1; NMeL = CN[C@@H](CC(C)C)C(=O)O; Morpholide = C1CN(*)CCO1; Aze = O=C(O)[C@@H]1CCN1; Ac4c = NC1(C(=O)O)CCC1; Sar = CNCC(=O)O
Value type: IC50 (nM)
// return numeric value only (unit: nM, not printed)

// below: answered compounds
>  <Compound>
CC[C@H](C)[C@@H]1NC(=O)[C@H](CC(C)C)N(C)C(=O)C[C@@H](C(=O)N2CCOCC2)N(C)C(=O)[C@H](C2CCCC2)NC(=O)C2(CCCC2)NC(=O)[C@@H]2CCCN2C(=O)[C@H](CCc2cc(F)c(C(F)(F)F)c(F)c2)NC(=O)CN(C)C(=O)[C@H](Cc2ccc(C(F)(F)F)cc2)N2CCCCC[C@@H](C2=O)N(C)C(=O)CN(C)C1=O

>  <Target desc>
human lung cancer strain NCI-H441

>  <IC50, nM>
2750

$$$$
>  <Compound>
CCC[C@H]1C(=O)N[C@@H](C2CCCCC2)C(=O)N(C)CC(=O)N(C)[C@H]2C/C=C\CCN(C2=O)[C@@H](Cc2ccc(C(F)(F)F)cc2)C(=O)N(C)CC(=O)N[C@@H](CCc2ccc(C(F)(F)F)c(Cl)c2)C(=O)N2C[C@H](OCC)C[C@H]2C(=O)NC2(CC(C)(C)C2)C(=O)N(C)[C@@H](CC(C)C)C(=O)N(C)[C@H](C(=O)N(C)C)CC(=O)N1C

>  <Target desc>
human lung cancer strain NCI-H441

>  <IC50, nM>
46.3

$$$$

Next compound, please.
Look up IC50 for this compound: CCCN1C(=O)CN(C)C(=O)[C@@H]2CCN2C(=O)[C@H]([C@@H](C)CC)NC(=O)[C@H](CC(C)C)N(C)C(=O)C[C@@H](C(=O)N2CCOCC2)NC(=O)[C@H](C2CCCC2)N(C)C(=O)C2(CCC2)NC(=O)[C@@H]2CC(F)(F)CN2C(=O)[C@H](CCc2ccc(C(F)(F)F)c(Cl)c2)NC(=O)CN(C)C(=O)[C@@H]1Cc1ccc(C(F)(F)F)cc1 [PP0340] ([NMeL]I[Aze][Sar][NPrPhe(4-CF3)][Sar][hPhe(3-Cl-4-CF3)][Pro(4,4-F2)][Ac4c][NMeGly(cPent)]D-Morpholide; lactam N-11)
177

###

system: human lung cancer strain NCI-H441; assay type: cell-based
Where a SMILES comes first, the peptide text is derived from it. Bridges are numbered along the chain shown (N, C = ends). [ ]: non-standard residue; d: D form. The star is where a group is joined. hPhe(3-Cl-4-CF3) = N[C@@H](CCc1ccc(C(F)(F)F)c(Cl)c1)C(=O)O; NPrPhe(4-CF3) = CCCN[C@@H](Cc1ccc(C(F)(F)F)cc1)C(=O)O; NMeGly(cPent) = CN[C@H](C(=O)O)C1CCCC1; NMeD = CN[C@@H](CC(=O)O)C(=O)O; NMeL = CN[C@@H](CC(C)C)C(=O)O; Morpholide = C1CN(*)CCO1; NMeA = CN[C@@H](C)C(=O)O; Ac5c = NC1(C(=O)O)CCCC1; Aze = O=C(O)[C@@H]1CCN1; Abu = CC[C@H](N)C(=O)O; Sar = CNCC(=O)O
Value type: pIC50
API: returns pIC50 as number; meaning -log10 of concentration in mol/L.

>  <Molecule>
CCO[C@@H]1C[C@H]2C(=O)NC3(CCC3)C(=O)N(C)[C@@H](C3CCCC3)C(=O)N(C)[C@H](C(=O)N(C)C)CC(=O)N(C)[C@@H](CC)C(=O)N[C@@H]([C@@H](C)CC)C(=O)N(C)[C@@H](C)C(=O)N(C)[C@H]3C/C=C\CCN(C3=O)[C@@H](Cc3ccc(C(F)(F)F)cc3)C(=O)N(C)CC(=O)N[C@@H](CCc3cc(F)c(C(F)(F)F)c(F)c3)C(=O)N2C1

>  <pIC50>
6.33

$$$$
>  <Molecule>
CCCC[C@H]1C(=O)N[C@@H]([C@@H](C)CC)C(=O)N(C)CC(=O)N(C)[C@H]2C/C=C\CCN(C2=O)[C@@H](Cc2ccc(C(F)(F)F)cc2)C(=O)N(C)CC(=O)N[C@@H](CCc2cc(F)c(C(F)(F)F)c(F)c2)C(=O)N2C[C@H](OCC)C[C@H]2C(=O)NC2(CC(C)(C)C2)C(=O)N(C)[C@@H](C2CCCC2)C(=O)N(C)[C@H](C(=O)N(C)CC)CC(=O)N1C

>  <pIC50>
7.95

$$$$
>  <Molecule>
CCO[C@@H]1C[C@H]2C(=O)NC3(CCC3)C(=O)N(C)[C@@H](C3CCCC3)C(=O)N(CC)[C@H](C(=O)N3CCOCC3)CC(=O)N(C)[C@@H](Cc3ccccc3)C(=O)N[C@@H]([C@@H](C)CC)C(=O)N(C)CC(=O)N(C)[C@H]3CCCCCN(C3=O)[C@@H](Cc3ccc(C(F)(F)F)cc3)C(=O)N(C)CC(=O)N[C@@H](CCc3cc(F)c(C(F)(F)F)c(F)c3)C(=O)N2C1

>  <pIC50>
6.02

$$$$
>  <Molecule>
CC[C@H](C)[C@@H]1NC(=O)[C@H](CC(C)C)N(C)C(=O)C[C@@H](C(=O)N(C)C)N(C)C(=O)[C@H](C2CCCC2)N(C)C(=O)C2(CCC2)NC(=O)[C@@H]2CC(F)(F)CN2C(=O)[C@H](CCc2cc(F)c(C(F)(F)F)c(F)c2)NC(=O)CN(C)C(=O)[C@H](Cc2ccc(C(F)(F)F)cc2)N2CCCC[C@@H](C2=O)N(C)C(=O)CN(C)C1=O

>  <pIC50>
8.62

$$$$
>  <Molecule>
CCCN1C(=O)[C@@H]2CCN2C(=O)[C@H](C)N(C)C(=O)[C@H](CC)NC(=O)[C@H](CC(C)C)N(C)C(=O)C[C@@H](C(=O)N2CCOCC2)N(C)C(=O)[C@H](C2CCCC2)N(C)C(=O)C2(CCCC2)NC(=O)[C@@H]2CCCN2C(=O)[C@H](CCc2ccc(C(F)(F)F)c(Cl)c2)NC(=O)CN(C)C(=O)[C@@H]1Cc1ccc(C(F)(F)F)cc1 [PP0269] ([NMeL][Abu][NMeA][Aze][NPrPhe(4-CF3)][Sar][hPhe(3-Cl-4-CF3)]P[Ac5c][NMeGly(cPent)][NMeD]-Morpholide; lactam N-11)

>  <pIC50>
7.46

$$$$

Look up pIC50 for this molecule: CC[C@H](C)[C@@H]1NC(=O)[C@H](COC)N(C)C(=O)C[C@@H](C(=O)N2CCOCC2)N(C)C(=O)[C@H](C2CCCC2)N(C)C(=O)C2(CCC2)NC(=O)[C@@H]2CC(F)(F)CN2C(=O)[C@H](CCc2cc(F)c(C(F)(F)F)c(F)c2)NC(=O)CN(C)C(=O)[C@H](Cc2ccc(C(F)(F)F)cc2)N2CCCCC[C@@H](C2=O)N(C)C(=O)CNC1=O
7.68
